Hi there, I'd appreciate the recorded inhibition at 1 µM for every entry that follows.
# ASSAY_SYSTEM: BRK (Homo sapiens)
# Sequence (Q13882 whole entry): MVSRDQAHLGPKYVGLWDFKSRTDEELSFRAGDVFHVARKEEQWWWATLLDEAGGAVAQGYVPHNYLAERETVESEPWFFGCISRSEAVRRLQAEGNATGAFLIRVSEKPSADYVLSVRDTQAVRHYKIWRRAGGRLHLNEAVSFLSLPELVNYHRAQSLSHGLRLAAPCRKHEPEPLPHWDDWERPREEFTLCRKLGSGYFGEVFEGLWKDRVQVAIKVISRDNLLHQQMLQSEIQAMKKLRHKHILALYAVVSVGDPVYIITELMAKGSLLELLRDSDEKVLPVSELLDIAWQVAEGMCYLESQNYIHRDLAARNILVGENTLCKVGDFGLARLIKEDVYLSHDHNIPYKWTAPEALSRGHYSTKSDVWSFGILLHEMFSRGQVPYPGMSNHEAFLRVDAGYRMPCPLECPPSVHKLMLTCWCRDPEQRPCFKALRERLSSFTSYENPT
# TEST_DETAILS: KINOMEscan competition binding
# SETUP_CONDITIONS: read-out: %Inh BRK
Numbers only, in %.

In the examples that follow, each entry is paired with its recorded inhibition at 1 µM.
compound="COc1cccc(OC)c1C(=O)Nc1cccc(-c2nn3ccccc3c2-c2ccnc(Nc3cccc(F)c3)n2)c1 [UNC10225310A]" unit_of_measurement=% observed_value=19
compound="Cn1cc(-c2cnc(N)c3c(-c4ccc5c(c4)CCN5C(=O)Cc4ccccc4)csc23)cn1 [UNC10225012A]" unit_of_measurement=% observed_value=92.2
compound="O=c1cc(N2CCOCC2)nc2n(Cc3cccc(Cl)c3Cl)c(C3CC3)nn12 [UNC10225469A]" unit_of_measurement=% observed_value=0

Quick one: give me inhibition at 1 µM for each item below, same order please.
1. Cc1ccc(NC(=O)Nc2cccc(C(F)(F)F)c2)cc1 [UNC10225187A]
2. CS(=O)(=O)Cc1ccc(Nc2nccc(-c3c(-c4cccc(NC(=O)C5CCCCC5)c4)nn4ncccc34)n2)cc1 [UNC10225159A]

Output:
1: 0; 2: 2
